# Lookup of reported GI50 keyed by entry
- System: MDA-MB-435
- test summary: NCI tumour cell line growth inhibition, 48 h
Activity calls are given as the source filed them. No stated cut-off is given here; in the data, active = GI50 up to about 1.1 µM and inactive = higher.
measurement kind: GI50

>  <molecule>
CC1(C)CC[C@]2(C(=O)O)CC[C@]3(C)C(=CC[C@@H]4[C@@]5(C)CC[C@@H]6OC(C)(C)OC[C@@]6(C)[C@@H]5CC[C@]43C)[C@H]2C1

>  <measurement kind>
GI50

>  <reported>
8.55 µM (inactive)

$$$$
>  <molecule>
O=C(Cn1c2c(c3ccccc31)CCCC2)N1CCCC1

>  <measurement kind>
GI50

>  <reported>
77.1 µM (inactive)

$$$$
>  <molecule>
O=C(N/N=C1\CCc2ccccc21)N/N=C1\CCc2ccccc21

>  <measurement kind>
GI50

>  <reported>
> 100 µM (inactive)

$$$$
>  <molecule>
Cc1cc(C)c2nc3c(c(C(O)C4CCCCN4)c2c1)CC/C3=C\c1ccc(Cl)cc1 (stereo not given)

>  <measurement kind>
GI50

>  <reported>
55.1 µM (inactive)

$$$$
>  <molecule>
N=C1CCCC1C(=S)SCCC(N)=O (stereo not given)

>  <measurement kind>
GI50

>  <reported>
> 100 µM (inactive)

$$$$

---

- Tested on: LOX IMVI
- test summary: NCI tumour cell line growth inhibition, 48 h
Calls of active or inactive are those of the source. Cut-off read from the data, not from the text of the source: active = GI50 up to about 1.1 µM and inactive = higher.
Classes used: T = active, F = inactive

>  <compound>
C[N+](C)(C)CC(=O)N/N=c1\cc(C(=O)Nc2ccc(N=O)cc2C#N)oc2cc(O)ccc12

>  <label value>
F

$$$$
>  <compound>
COC1/C=C\C=C(/C)C(=O)NC2=CC(=O)C(N)=C(CC(C)CC(OC)C(O)C(C)C=C(C)C1OC(N)=O)C2=O (centres undefined)

>  <label value>
T

$$$$
>  <compound>
CCN(CC)CCCn1c(=O)c2cccnc2n2c3c(=O)n(C)c(=O)n(C)c3nc12

>  <label value>
F

$$$$
>  <compound>
CO[C@H]1ON=C(c2c(C)cc(C)cc2C)[C@@H]1C1(c2ccccc2)ON=C(c2c(C)cc(C)cc2C)O1 (some centres undefined)

>  <label value>
F

$$$$
>  <compound>
CN(C)/N=C1/CCC(C(F)(F)F)(C(F)(F)F)O1

>  <label value>
F

$$$$
>  <compound>
CC(C)(C)OC(=O)N(O)CCCn1cnc2c(NC3CC3)ncnc21

>  <label value>
F

$$$$
>  <compound>
Cc1ccc(S(=O)(=O)C2=c3nc4ccccc4cc3=C3C(=O)c4ccccc4C(=O)C32)cc1 (centres undefined)

>  <label value>
F

$$$$
>  <compound>
O=C(c1ccc(Cl)cc1)c1ccc(OCCSCCCCCCCCCCSCCOc2ccc(C(=O)c3ccc(Cl)cc3)cc2)cc1

>  <label value>
F

$$$$
>  <compound>
COc1cc(C2SCC(=O)N2c2ccccc2Cl)cc(OC)c1OC (centres undefined)

>  <label value>
F

$$$$
>  <compound>
Cc1cccc(Cl)c1NC(=O)/C=C/c1ccccc1

>  <label value>
F

$$$$
>  <compound>
COc1ccc(/C=C2\CCC(CN3CCOCC3)C2=O)cc1 (centres undefined)

>  <label value>
F

$$$$
>  <compound>
O=C(C(=O)c1cc(-c2ccccc2)nc2ccc3ccccc3c12)c1ccccc1

>  <label value>
F

$$$$
>  <compound>
O=C1c2ccccc2C(C2c3ccccc3C(=O)c3cc(Br)ccc32)c2ccc(Br)cc21 (centres undefined)

>  <label value>
F

$$$$
>  <compound>
CCOC(=O)CCC(NC(=O)c1ccc(Oc2nc3ccccc3nc2-c2ccccc2)cc1)C(=O)OCC (centres undefined)

>  <label value>
F

$$$$
>  <compound>
Cc1cc(NC(=O)NC(=O)c2ccccc2N)ccc1Oc1ncc(Br)cn1

>  <label value>
T

$$$$
>  <compound>
Nc1nc(S)c2c(N)n[nH]c2c1C(=O)Nc1ccc(Cl)cc1

>  <label value>
F

$$$$
>  <compound>
Clc1ccc(CN2CCCN(Cc3ccc(Cl)cc3)C2c2cc3ccccc3c3ccccc23)cc1

>  <label value>
F

$$$$
>  <compound>
O=P(c1ccccc1)(c1ccccc1)N1O[C@@H](c2ccccc2)C=C[C@H]1c1ccccc1

>  <label value>
F

$$$$
>  <compound>
Cc1ncc(-c2nnnn2-c2ccccc2)c(C(=O)O)n1

>  <label value>
F

$$$$
>  <compound>
COc1ccc(-c2oc3c(OC)c(OC)c(OC)c(OC)c3c(=O)c2OC)cc1OC

>  <label value>
F

$$$$
>  <compound>
Nc1cc2c(nnn2C2OC(COCc3ccccc3)C(OCc3ccccc3)C2OCc2ccccc2)c(=O)[nH]1 (centres undefined)

>  <label value>
F

$$$$
>  <compound>
COC(=O)C#Cc1ccc([N+](=O)[O-])cc1

>  <label value>
T

$$$$
>  <compound>
COc1ccc2c3c1OC1c4[nH]c5ccccc5c4CC4(O)C(C2)N(C)CCC314 (centres undefined)

>  <label value>
F

$$$$
>  <compound>
O=C(O)c1ccc(Nc2nc3ccc(C(F)(F)F)cc3nc2C(=O)O)cc1

>  <label value>
F

$$$$
>  <compound>
Cc1cc(=O)oc2cc(SC(=O)N(C)C)ccc12

>  <label value>
F

$$$$
>  <compound>
CC1(C(=O)O)C[C@](C)(C(=O)OCc2ccccc2)C[C@](C)(C(=O)OCc2ccccc2)C1 (some centres undefined)

>  <label value>
F

$$$$
>  <compound>
O=Cc1c(O)c(C(=O)Nc2ccc3[nH]c(=O)[nH]c3c2)cc2ccccc12

>  <label value>
F

$$$$
>  <compound>
Cc1cc2c(c(/C=N/Cc3ccccc3)c1)OC1(C=C2)Oc2ccccc2C(=O)N1C (centres undefined)

>  <label value>
F

$$$$
>  <compound>
CC(=O)O[C@H]1CC2C(C3CCC(C(C)CCC(=O)O)[C@]31C)[C@H](OC(C)=O)C[C@@H]1CC3(CC[C@]21C)OOC1(CC[C@]2(C)C4C[C@H](OC(C)=O)[C@]5(C)C(C(C)CCC(=O)O)CCC5C4[C@H](OC(C)=O)C[C@@H]2C1)OO3 (some centres undefined)

>  <label value>
F

$$$$
>  <compound>
O=C(/C=C\c1ccccc1)Oc1ccc(/C=C2\CCC/C(=C\c3ccc(OC(=O)/C=C\c4ccccc4)cc3)C2=O)cc1

>  <label value>
F

$$$$
>  <compound>
O=C(NC1CCCCC1)c1c(O)[nH]c(=S)[nH]c1=O

>  <label value>
F

$$$$
>  <compound>
CC1(C)CC(=O)C2=C(C1)NC1=C(C2)C(=O)CC(C)(C)C1

>  <label value>
F

$$$$
>  <compound>
Cn1c2ccccc2n2c3nc4ccccc4nc3c(C#N)c12

>  <label value>
F

$$$$
>  <compound>
Fc1ccc(/N=N/N2CCCC2)cc1

>  <label value>
F

$$$$
>  <compound>
CCCCc1c2c(nc3c1CC/C(=C\c1ccc([N+](=O)[O-])cc1)C3=O)CCCC2

>  <label value>
F

$$$$
>  <compound>
COc1ccc(CCNC(=O)Cc2ccccc2CO)cc1OC

>  <label value>
F

$$$$
>  <compound>
N#Cc1ccc(N2CCOCC2)cc1

>  <label value>
F

$$$$
>  <compound>
COc1ccc(/C=C/[N+](=O)[O-])cc1

>  <label value>
F

$$$$
>  <compound>
Nc1ccc2ncc(Nc3ccc(F)cc3)nc2c1

>  <label value>
F

$$$$

---

- System: SK-MEL-28
- test summary: NCI tumour cell line growth inhibition, 48 h
Active and inactive are the calls of the source. Cut-off read from the data, not from the text of the source: active = GI50 up to about 1.1 µM and inactive = higher.

>  <compound>
COc1ccc2c3c([nH]c2c1[N+](=O)[O-])C(C)N(Cc1ccccc1)CC3 (centres undefined)

>  <measured target>
SK-MEL-28

>  <GI50>
7.69 µM (inactive)

$$$$
>  <compound>
COc1cc(S(=O)(=O)Nc2ccc(-c3csc(/N=C\c4cccs4)n3)cc2)ccc1Cl

>  <measured target>
SK-MEL-28

>  <GI50>
35.9 µM (inactive)

$$$$
>  <compound>
CCOC(=O)c1ccc(N[C@@H]2c3cc4c(cc3C(C3=CC(=O)C(=O)C(OC)=C3)[C@H]3C(=O)OCC32)OCO4)cc1 (some centres undefined)

>  <measured target>
SK-MEL-28

>  <GI50>
7.6 µM (inactive)

$$$$
>  <compound>
O=C(O)CN1CCN(CC(=O)O)CCN(CC(=O)O)CC1

>  <measured target>
SK-MEL-28

>  <GI50>
> 72.1 µM (inactive)

$$$$
>  <compound>
FC(F)(F)c1cccc(COCCN2CCN(Cc3cccc(C(F)(F)F)c3)CC2)c1

>  <measured target>
SK-MEL-28

>  <GI50>
17.8 µM (inactive)

$$$$
>  <compound>
O=c1c2ccccc2nc(N/N=C/c2ccccc2O)n1-c1ccccc1

>  <measured target>
SK-MEL-28

>  <GI50>
11.4 µM (inactive)

$$$$
>  <compound>
CN(Cc1cc(Cl)cc(Cl)c1)CC(C(=O)c1ccccc1)c1ccccc1 (centres undefined)

>  <measured target>
SK-MEL-28

>  <GI50>
2.9 µM (inactive)

$$$$
>  <compound>
Cc1ccccc1C(=O)N1CCN(C(=O)c2ccccc2C)CC1

>  <measured target>
SK-MEL-28

>  <GI50>
> 100 µM (inactive)

$$$$
>  <compound>
COc1ccc(-c2oc3c(OC)c(OC)c(OC)c(OC)c3c(=O)c2OC)cc1OC

>  <measured target>
SK-MEL-28

>  <GI50>
66.7 µM (inactive)

$$$$
